Cited source for all entries: ChEMBL document CHEMBL4513216

Tested on: Plasmodium berghei
Assay: Screen against P. berghei liver stage (PbLuc), transformed with Luciferase, at 10uM
Assay type: functional, HepG2
Conditions: tested at 10 uM
Screen size: about 69,000 compounds; about 8,600 (12%) showed an effect of 50% or more. The sample holds strong results, similar compounds and a random draw of the others, so the mix is not that of the screen.
Below, each of the molecules is paired with its reported INHIBITION value.
Enter your answer as a number in %; do not include the unit.

Illustrative cases are given below, each with its answer.
[
  {
    "molecule": "O=C(NCCN1CCC(c2cccs2)CC1)c1ccccc1C(F)(F)F",
    "system": "Plasmodium berghei",
    "INHIBITION [%]": 40.9
  },
  {
    "molecule": "O=C(NCCN1CCC(c2cccs2)CC1)Nc1cccs1",
    "system": "Plasmodium berghei",
    "INHIBITION [%]": 9.54
  },
  {
    "molecule": "N#CCCN(CC1CCCO1)C(=O)c1ccc(C#N)cc1 (stereo not drawn)",
    "system": "Plasmodium berghei",
    "INHIBITION [%]": -5.31
  }
]

// lookup INHIBITION for "Cc1nnc([C@@]23CCO[C@@H]2CCN(Cc2scnc2C)C3)o1"
10.4

// lookup INHIBITION for "O=C(Cc1ccccc1Cl)NCCN1CCC(c2cccs2)CC1"
56.6

###

Tested on: Plasmodium berghei
Test: Screen against P. berghei liver stage (PbLuc), transformed with Luciferase, at 10uM
Format: functional, HepG2
Details: tested at 10 uM
Out of some 69,000 compounds screened, about 8,600 (12%) showed an effect of 50% or more. Only a selection was taken, and strong results are over-represented in it overall.
Label met when INHIBITION < 30%; otherwise not met.

[
  {
    "compound": "CSc1ncc(C(=O)N2C[C@@H]3CC[C@H]2CN(S(=O)(=O)N(C)C)C3)cn1",
    "category": "met"
  },
  {
    "compound": "CN(C)[C@@H]1CCN(c2ncc(F)cn2)[C@H]1Cc1ccccc1",
    "category": "met"
  },
  {
    "compound": "CCO[C@H]1C[C@@H](O)C12CCN(C(=O)CN1CCCCCC1=O)CC2",
    "category": "met"
  },
  {
    "compound": "COc1cccc(CNCCc2cccc(C(N)=O)c2)c1",
    "category": "met"
  },
  {
    "compound": "O=C(CNC(=O)Nc1c(F)cc(F)cc1-c1ccccc1)NC1CC1",
    "category": "met"
  },
  {
    "compound": "CN(C(=O)C(c1c(F)cccc1Cl)N(C)C)c1nccs1 (stereo not given)",
    "category": "not met"
  },
  {
    "compound": "CCCc1cc(CNC2CCN(c3cc(C(C)C)nc(C)n3)CC2)on1",
    "category": "not met"
  },
  {
    "compound": "CCO[C@H]1C[C@@H](O)C12CCN(C(=O)CC(F)(F)F)CC2",
    "category": "not met"
  }
]

Here's an entry: "O=C(COc1cccc(F)c1)N1C[C@@H](O)[C@H](N2CCCC2)C1" . Is its INHIBITION below 30%?
not met

Here's an entry: CCC(=O)N1CCc2c(O)nc(C3CCCCN3C(=O)C3CC3)nc2C1 (stereo not given) . Is its INHIBITION below 30%?
met

Here's an entry: "NC(=O)c1cccc(CCNCc2cccs2)c1" . Is its INHIBITION below 30%?
met

Here's an entry: CN(C)C(C(=O)NCC1(O)CCCCC1)c1c(F)cccc1F (stereo not given) . Is its INHIBITION below 30%?
met

Here's an entry: "CS(=O)(=O)N1CCC(Nc2ccc(C#N)c(C(F)(F)F)c2)CC1" . Is its INHIBITION below 30%?
met

Here's an entry: CN(C)CC(=O)N1CCCCC1c1nc(N)ncc1-c1ccccc1 (stereo not given) . Is its INHIBITION below 30%?
met

Here's an entry: "COC(=O)CCN(C)C(=O)c1ccc(-c2cscn2)cc1" . Is its INHIBITION below 30%?
not met

Here's an entry: "CCCc1cc(N2CCC(NC3CCOCC3)CC2)nc(C)n1" . Is its INHIBITION below 30%?
met

Here's an entry: "CCO[C@H]1C[C@@H](O)C12CCN(C1CCN(c3ccccc3)CC1)CC2" . Is its INHIBITION below 30%?
met

Here's an entry: O=C(c1ccccc1OC1CCCC1)N1CCCC(n2cncn2)C1 (stereo not given) . Is its INHIBITION below 30%?
not met

Here's an entry: "NC(=O)c1cccc(CCNCc2cnc(-c3cccs3)s2)c1" . Is its INHIBITION below 30%?
not met

Here's an entry: "O=C(COc1ccccc1)N1C[C@@H](O)[C@H](N2CCCC2)C1" . Is its INHIBITION below 30%?
not met

Here's an entry: Cc1csc(N(C)C(=O)C(c2c(F)cccc2Cl)N(C)C)n1 (stereo not given) . Is its INHIBITION below 30%?
met

Here's an entry: "N#Cc1ccc(NC2CCN(c3ncccn3)CC2)cc1C(F)(F)F" . Is its INHIBITION below 30%?
not met

Here's an entry: "COC1CCN(C(=O)Cc2csc(-c3ccccc3)n2)CC1" . Is its INHIBITION below 30%?
met

###

System: Plasmodium berghei
Experiment: Screen against P. berghei liver stage (PbLuc), transformed with Luciferase, at 10uM
Assay type: functional, HepG2
Settings: tested at 10 uM
Screen size: about 69,000 compounds; about 8,600 (12%) showed an effect of 50% or more. The list comes from a sample in which strong results are over-represented; it also holds close analogues and randomly drawn compounds.
Binning of INHIBITION into classes: class 1 = under 10%, class 2 = from 10% up to 50%, class 3 = 50% and over

[
  {
    "molecule": "Cn1nc(C(=O)N2CCOCC2)cc1C(=O)Nc1cc(Cl)cc(Cl)c1",
    "category": "class 2"
  },
  {
    "molecule": "CCC[C@H]1CN(c2nc(CO)cs2)C[C@@H]1NC(=O)C1CCC1",
    "category": "class 2"
  },
  {
    "molecule": "CC(C)OCCCNC(=O)CS(=O)(=O)Cc1ccc(Cl)cc1",
    "category": "class 1"
  },
  {
    "molecule": "Cc1occc1C(=O)N1CCC2(CCC(C(=O)NCC3CC3)O2)CC1 (stereo not given)",
    "category": "class 1"
  },
  {
    "molecule": "CC(=O)N[C@@H]1CN(C(=O)c2cc3ccccc3[nH]2)C[C@H]1c1ccc(C)o1",
    "category": "class 3"
  },
  {
    "molecule": "CC(=O)N[C@@H]1CN(C(=O)c2ccc[nH]2)C[C@H]1c1ccc(C)o1",
    "category": "class 2"
  }
]

Which category fits this record: "CC(=O)N[C@@H]1CN(C(=O)c2cc3sccc3[nH]2)C[C@H]1c1ccc(C)o1"
class 1

Which category fits this record: "CCn1cc(NC(=O)NCc2ccc3c(c2)OCO3)cn1"
class 1

Which category fits this record: "CC(=O)N[C@@H]1CN(c2nc(CO)cs2)C[C@H]1c1ccc(C)o1"
class 3

###

System: Plasmodium berghei
Test: Screen against P. berghei liver stage (PbLuc), transformed with Luciferase, at 10uM
Assay type: functional, HepG2
Conditions: tested at 10 uM
About 8,600 (12%) of roughly 69,000 compounds showed an effect of 50% or more. Many of the other results were omitted from the sample, so strong results are more common in it than they were.
test.readout: INHIBITION

Illustrative cases are given below, each with its answer.
[
  {
    "compound": "COCCN1C=NC2(CCC(C(=O)Nc3ccc(C)cc3)CC2)C1=O (stereo unspecified)",
    "INHIBITION": "63.5%"
  },
  {
    "compound": "CC(C)n1cnnc1CN(C)Cc1cnc(-c2ccccn2)nc1",
    "INHIBITION": "-36.3%"
  },
  {
    "compound": "COCCN1C(=O)C2(CCC(C(=O)Nc3ccc(C)cc3)CC2)N=C1C (stereo unspecified)",
    "INHIBITION": "31.4%"
  },
  {
    "compound": "Cc1ccccc1-n1cc(C2=CCN(CCn3cc[nH]c3=O)CC2)cn1",
    "INHIBITION": "69.4%"
  },
  {
    "compound": "COC(=O)c1cccc(CN(C)C(C)c2ccccn2)c1 (stereo unspecified)",
    "INHIBITION": "14.8%"
  }
]

Moving on to another compound below.
// lookup INHIBITION for CC(c1cccs1)N(C)Cc1cnc(-c2ccccn2)nc1 (stereo unspecified)
66.5%
